biological target: wild-type human ALK (cytoplasmic domain, amino acids 1058-1620, N-terminal GST fusion) (Homo sapiens, UniProt Q9UM73); construct: The cytoplasmic domain (amino acids 1058-1620) of wild-type human ALK; GST (N); made in house; host or cells: SF9 insect cells; test: ALK Inhibition in Enzyme Assay (Lance TR-FRET kinase assay); format: biochemical
Sequence (Q9UM73 1058-1620): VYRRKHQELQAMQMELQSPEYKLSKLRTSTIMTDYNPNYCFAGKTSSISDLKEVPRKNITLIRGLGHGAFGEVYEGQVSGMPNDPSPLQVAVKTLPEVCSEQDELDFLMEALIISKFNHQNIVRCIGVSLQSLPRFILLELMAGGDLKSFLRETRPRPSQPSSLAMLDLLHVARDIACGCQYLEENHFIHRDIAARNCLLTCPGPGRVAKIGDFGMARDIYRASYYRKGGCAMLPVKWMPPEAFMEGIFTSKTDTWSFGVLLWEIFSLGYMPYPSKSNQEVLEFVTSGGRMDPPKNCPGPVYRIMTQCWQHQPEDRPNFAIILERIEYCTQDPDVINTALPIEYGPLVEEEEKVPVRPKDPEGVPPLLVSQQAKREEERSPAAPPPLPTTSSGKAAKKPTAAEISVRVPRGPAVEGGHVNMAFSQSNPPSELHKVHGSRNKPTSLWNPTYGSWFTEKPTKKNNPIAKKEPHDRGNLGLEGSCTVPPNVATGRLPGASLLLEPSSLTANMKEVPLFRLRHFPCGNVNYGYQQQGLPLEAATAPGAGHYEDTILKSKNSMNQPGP
pIC50: −log10 of the molar value.
Overview of recorded pIC50 for various compounds

The cases that follow already have their pIC50 on record.
[[record]]
structure_notation = "CC(C)NC(=O)[C@H]1CC[C@@H](n2/c(=N/C(=O)c3ccc4ccn(C)c4c3)[nH]c3cnc(OCCN4CCCCC4)cc32)CC1"
measure_name = "pIC50"
result = "5.30 to 6.00"

[[record]]
structure_notation = "Cc1n[nH]c([C@H]2CC[C@@H](n3/c(=N/C(=O)c4cccc(F)c4)[nH]c4ccc(CN5CCC(C(C)(C)O)CC5)cc43)CC2)n1"
measure_name = "pIC50"
result = "> 7.30"

[[record]]
structure_notation = "CNc1ccc(C(=O)/N=c2\\[nH]c3cnc(OCCN4CCCCC4)cc3n2[C@H]2CC[C@@H](C(=O)NC(C)C)CC2)cc1"
measure_name = "pIC50"
result = "5.30 to 6.00"

[[record]]
structure_notation = "CCS(=O)(=O)N1CCC(n2/c(=N/C(=O)c3ccccc3)[nH]c3cnc(OCCN4CCCCC4)cc32)CC1"
measure_name = "pIC50"
result = "6.00 to 7.00"

[[record]]
structure_notation = "COC(=O)[C@H]1CC[C@@H](n2/c(=N/C(=O)c3ccccc3)[nH]c3cnccc32)CC1"
measure_name = "pIC50"
result = "6.00 to 7.00"


# get_value(readout='pIC50', item= CC(C)NC(=O)[C@H]1CC[C@@H](n2/c(=N/C(=O)c3ccc(F)cc3)[nH]c3cnc(OCCO)cc32)CC1 )
> 7.30

# get_value(readout='pIC50', item= COC(=O)[C@H]1CC[C@@H](n2/c(=N/C(=O)c3ccc(F)cc3)[nH]c3cnc(OCCN4CCCCC4)cc32)CC1 )
> 7.30

# get_value(readout='pIC50', item= CC(C)NC(=O)[C@H]1CC[C@@H](n2/c(=N/C(=O)c3ccc(F)cc3)[nH]c3cnc(OCCN4CCOCC4)cc32)CC1 )
> 7.30

# get_value(readout='pIC50', item= CC(C)(O)C1CCN(Cc2ccc3[nH]/c(=N\C(=O)c4cccc(F)c4)n([C@H]4CC[C@H](C(N)=O)CC4)c3c2)CC1 )
6.00 to 7.00

====

Overview of recorded pIC50 for various compounds
target: wild-type human ALK (cytoplasmic domain, amino acids 1058-1620, N-terminal GST fusion) (Homo sapiens, UniProt Q9UM73); construct: The cytoplasmic domain (amino acids 1058-1620) of wild-type human ALK; GST (N); made in house; host or cells: SF9 insect cells; test: ALK Inhibition in Enzyme Assay (Lance TR-FRET kinase assay); format: biochemical
pIC50: −log10 of the molar value.

The cases that follow already have their pIC50 on record.
[[record]]
structure_notation = "CC(C)NC(=O)[C@H]1CC[C@@H](n2/c(=N/C(=O)c3ccc4cc[nH]c4c3)[nH]c3cnc(OCCN4CCCCC4)cc32)CC1"
result = "6.00 to 7.00"

[[record]]
structure_notation = "COC(=O)Nc1nc2ccc(CN3CCCCC3)cc2n1[C@H]1CC[C@@H](C(=O)NC(C)C)CC1"
result = "6.00 to 7.00"


# get_value(readout='pIC50', item= CC(C)NC(=O)[C@H]1CC[C@@H](n2/c(=N/C(=O)c3ccc(F)cc3)[nH]c3cc(F)c(OCCN4CCOCC4)cc32)CC1 )
> 7.30

# get_value(readout='pIC50', item= COC(=O)[C@H]1CC[C@@H](n2/c(=N/C(=O)c3cccc(C(F)(F)F)c3)[nH]c3ccc(CO)cc32)CC1 )
6.00 to 7.00

====

Overview of recorded IC50 for various compounds
target: wild-type human ALK (cytoplasmic domain, amino acids 1058-1620, N-terminal GST fusion) (Homo sapiens, UniProt Q9UM73); construct: The cytoplasmic domain (amino acids 1058-1620) of wild-type human ALK; GST (N); made in house; host or cells: SF9 insect cells; test: ALK Inhibition in Enzyme Assay (Lance TR-FRET kinase assay); assay type: biochemical

The cases that follow already have their IC50 on record.
[[record]]
structure_notation = "CC(C)NC(=O)[C@H]1CC[C@@H](n2/c(=N/C(=O)c3ccc(F)cc3)[nH]c3cnccc32)CC1"
result = "< 50 nM"

[[record]]
structure_notation = "CC(C)NC(=O)[C@H]1CC[C@@H](n2c(N)nc3cnc(OCCN4CCCCC4)cc32)CC1"
result = "5000 to 10000 nM"

[[record]]
structure_notation = "CC(C)NC(=O)[C@H]1CC[C@@H](n2/c(=N/C(=O)c3ccc(F)cc3)[nH]c3ccc(S(C)(=O)=O)cc32)CC1"
result = "< 50 nM"

[[record]]
structure_notation = "CC(C)NC(=O)[C@H]1CC[C@@H](n2/c(=N/C(=O)c3ccc(F)cc3)[nH]c3cnc(NCC(C)(C)O)cc32)CC1"
result = "< 50 nM"


# get_value(readout='IC50', item= CC(C)NC(=O)[C@H]1CC[C@@H](n2/c(=N/C(=O)c3ccc(F)c(Cl)c3)[nH]c3cnc(OCCN4CCCCC4)cc32)CC1 )
< 50 nM

# get_value(readout='IC50', item= COCc1ccc2[nH]/c(=N\C(=O)c3ccc(F)cc3)n([C@H]3CC[C@@H](C(=O)NC(C)C)CC3)c2c1 )
< 50 nM

# get_value(readout='IC50', item= CC(C)NC(=O)[C@H]1CC[C@@H](n2/c(=N/C(=O)c3cccc(OC(F)(F)F)c3)[nH]c3cnc(OCCN4CCCCC4)cc32)CC1 )
50 to 100 nM

====

target: wild-type human ALK (cytoplasmic domain, amino acids 1058-1620, N-terminal GST fusion) (Homo sapiens, UniProt Q9UM73); construct: The cytoplasmic domain (amino acids 1058-1620) of wild-type human ALK; GST (N); made in house; host or cells: SF9 insect cells; experiment: ALK Inhibition in Enzyme Assay (Lance TR-FRET kinase assay); type: biochemical
pIC50: −log10 of the molar value.
measure.name: pIC50

[[record]]
structure_notation = "CC(C)(C)NC(=O)[C@H]1CC[C@@H](n2c(NC(=O)c3ccccc3)nc3ccc(CN4CCCCC4)cc32)CC1"
measure_name = "pIC50"
result = "> 7.30"

[[record]]
structure_notation = "CC(C)NC(=O)[C@H]1CC[C@@H](n2/c(=N/C(=O)c3ccc(F)cc3)[nH]c3ccc(OCCN4CCOCC4)cc32)CC1"
measure_name = "pIC50"
result = "> 7.30"


# get_value(readout='pIC50', item= CC(C)(O)CNC(=O)[C@H]1CC[C@@H](n2/c(=N/C(=O)c3ccc(F)cc3)[nH]c3ccc(CN4CCOCC4)cc32)CC1 )
7.00 to 7.30

# get_value(readout='pIC50', item= CC(C)NC(=O)[C@H]1CC[C@@H](n2/c(=N/C(=O)c3ccc(C(F)(F)F)cc3)[nH]c3cnc(OCCN4CCCCC4)cc32)CC1 )
6.00 to 7.00

# get_value(readout='pIC50', item= C[C@@H]1CNCCN1C(=O)[C@H]1CC[C@@H](n2/c(=N/C(=O)c3ccc(C#N)cc3)[nH]c3cnc(OCCN4CCCCC4)cc32)CC1 )
> 7.30

# get_value(readout='pIC50', item= C=CCNS(=O)(=O)c1cccc(C(=O)/N=c2\[nH]c3cnc(OCCN4CCCCC4)cc3n2[C@H]2CC[C@H](C(N)=O)CC2)c1 )
7.00 to 7.30

====

target: wild-type human ALK (cytoplasmic domain, amino acids 1058-1620, N-terminal GST fusion) (Homo sapiens); construct: The cytoplasmic domain (amino acids 1058-1620) of wild-type human ALK; GST (N); made in house; host or cells: SF9 insect cells; assay: ALK Inhibition in Enzyme Assay (Lance TR-FRET kinase assay); assay type: biochemical
Structures can show the parent of a compound that is named as a salt.
measure.name: IC50

The cases that follow already have their IC50 on record.
[[record]]
molecule = "CC(C)NC(=O)[C@H]1CC[C@@H](n2/c(=N/C(=O)c3ccc(F)cc3)[nH]c3cnc(N4CCOCC4)cc32)CC1 [Example 222]"
measure_name = "IC50"
result = "< 50 nM"

[[record]]
molecule = "NC(=O)[C@]1(c2cccc(Br)c2)C[C@@H](n2/c(=N/C(=O)c3ccc(F)cc3)[nH]c3cnc(OCCN4CCCCC4)cc32)C1 [Example 251]"
measure_name = "IC50"
result = "50 to 100 nM"

[[record]]
molecule = "CC(C)NC(=O)[C@H]1CC[C@@H](n2/c(=N/C(=O)c3cccc(C#N)c3)[nH]c3cnc(OCCN4CCCCC4)cc32)CC1 [Example 91]"
measure_name = "IC50"
result = "< 50 nM"

[[record]]
molecule = "O=C(Nc1nc2ccc(CN3CCCCC3)cc2n1[C@H]1CC[C@@H](C(=O)O)CC1)c1ccc(F)cc1 [Example 10, hydrochloride]"
measure_name = "IC50"
result = "100 to 1000 nM"

[[record]]
molecule = "C=CCNS(=O)(=O)c1cccc(C(=O)/N=c2\\[nH]c3ccc(CO)cc3n2C23CC4CC(CC(C4)C2)C3)c1 [Example 17]"
measure_name = "IC50"
result = "< 50 nM"


Lab note: next molecule to report on.
# get_value(readout='IC50', item= O=C(/N=c1\[nH]c2ccc(CN3CCCCC3)cc2n1[C@H]1CC[C@@H](C(=O)Nc2nccs2)CC1)c1ccc(F)cc1 [Example 49] )
50 to 100 nM
